- assay.method.text: Aqueous solubility (MultiScreen Solubility Filter Plate)
- Assay type: physicochemical
- test.context: MultiScreen Solubility Filter Plate (Millipore), kinetic from dmso stock
quantity.name: solubility (µM)
Give the value, in units of µM, as a plain number.

[
  {
    "compound": "CCN(CC)Cc1ccc(/C=C\\c2ccc(CN(CC)CC)c(O)c2)cc1O [NB-5]",
    "recorded.number": 509
  }
]

Using the record for CCN(CC)Cc1ccc(/C(C)=C(/C)c2ccc(CN(CC)CC)c(O)c2)cc1O [NB-3] , state its measured solubility.
460

Using the record for CCN(CC)Cc1ccc(/C=C/c2ccc(CN(CC)CC)c(O)c2)cc1O [NB-10] , state its measured solubility.
474

Using the record for Oc1cc(/C=C/c2ccc(CN3CCCCC3)c(O)c2)ccc1CN1CCCCC1 [NB-12] , state its measured solubility.
484

Using the record for CCN(CC)Cc1cc(/C=C/c2ccc(O)c(CN(CC)CC)c2)ccc1O [NB-1] , state its measured solubility.
533

Using the record for CN(C)Cc1ccc(/C=C\c2ccc(CN(C)C)c(O)c2)cc1O [NB-6] , state its measured solubility.
538

Using the record for C/C(=C(\C)c1ccc(CN(C)C)c(O)c1)c1ccc(CN(C)C)c(O)c1 [NB-9] , state its measured solubility.
384

Using the record for C/C(=C(/C)c1ccc(CN(C)C)c(O)c1)c1ccc(CN(C)C)c(O)c1 [NB-4] , state its measured solubility.
478

Using the record for Oc1cc(/C=C\c2ccc(CN3CCCCC3)c(O)c2)ccc1CN1CCCCC1 [NB-7] , state its measured solubility.
495

Using the record for CCN(CC)Cc1ccc(/C(C)=C(\C)c2ccc(CN(CC)CC)c(O)c2)cc1O [NB-8] , state its measured solubility.
272

###

- System: Jak2-V617F expressing Human Erythroleukemia (HEL) cells
- assay.method.text: Inhibition of Jak2-V617F dependent HEL cell growth (trypan blue viable cell count)
- Format: cell-based
- test.context: Homo sapiens, HEL, 25 uM inhibitor
quantity.name: inhibition at 25 µM (%)
Give the value, in units of %, as a plain number.

[
  {
    "smiles.input": "CCN(CC)Cc1ccc(/C=C\\c2ccc(CN(CC)CC)c(O)c2)cc1O",
    "inhibition at 25 µM / %": 101
  }
]

Using the record for C/C(=C(\C)c1ccc(CN(C)C)c(O)c1)c1ccc(CN(C)C)c(O)c1 , state its measured inhibition at 25 µM.
101

Using the record for C/C(=C(/C)c1ccc(CN(C)C)c(O)c1)c1ccc(CN(C)C)c(O)c1 , state its measured inhibition at 25 µM.
101

Using the record for CCN(CC)Cc1ccc(/C(C)=C(\C)c2ccc(CN(CC)CC)c(O)c2)cc1O , state its measured inhibition at 25 µM.
100

Using the record for Oc1cc(/C=C/c2ccc(CN3CCCCC3)c(O)c2)ccc1CN1CCCCC1 , state its measured inhibition at 25 µM.
100

Using the record for CCN(CC)Cc1ccc(/C(C)=C(/C)c2ccc(CN(CC)CC)c(O)c2)cc1O , state its measured inhibition at 25 µM.
101

Using the record for CCN(CC)Cc1cc(/C=C/c2ccc(O)c(CN(CC)CC)c2)ccc1O , state its measured inhibition at 25 µM.
98

Using the record for CCN(CC)Cc1ccc(/C=C/c2ccc(CN(CC)CC)c(O)c2)cc1O , state its measured inhibition at 25 µM.
100

Using the record for Oc1cc(/C=C\c2ccc(CN3CCCCC3)c(O)c2)ccc1CN1CCCCC1 , state its measured inhibition at 25 µM.
99
